Here the recorded cytotoxicity at 10 µM is given for each entry.
# RUN DESCRIPTION: Toxicity liver stage against HepG2, at 10uM
# Type: cell-based
# Set-up: test concentration 10 uM, cell line HepG2-A16-CD81EGFP
# SETTINGS: human, HepG2-A16-CD81EGFP cells; read-out: INHIBITION
Report the figure in % without appending any unit label.

Worked examples follow.
COc1ccccc1CN1C[C@@H]2COC[C@]2(COCc2ccncc2)C1 | -70.9
CNC(=O)C1(N2CCC[C@H]2C(=O)NC2CCCCC2)CCOCC1 | -1.25
Cc1cc(CN2CCC(N(C)Cc3nnc(C4CC4)n3C)C2)on1 (configuration not stated) | -11.6
Cc1cnccc1NCCNC1CCSCC1 | -9.44
Cc1occc1-c1nc(NC2CCCC2)ncc1-c1ccccn1 | -20.9

# input Name the recorded cytotoxicity at 10 µM of the molecule listed here: `O=C(NCCCn1cccn1)C1(c2ccc(Br)cc2)CC1`
# output -0.0323

---

Here the recorded cytotoxicity at 10 µM is given for each entry.
# RUN DESCRIPTION: Toxicity liver stage against HepG2, at 10uM
# Assay type: cell-based
# Parameters: test concentration 10 uM, cell line HepG2-A16-CD81EGFP
# SETTINGS: human, HepG2-A16-CD81EGFP cells; read-out: INHIBITION
Report the figure in % without appending any unit label.

O=C1OCCN1CCNC(=O)C1(N2CCCCC2)Cc2ccccc2C1 | -6.77
Cc1cc(C)c(CNC(=O)N2CCN(c3ncccn3)CC2)c(=O)[nH]1 | -6.28
Cc1nc(CN(C)C2CCN(CC3CCCC3)C2)no1 (configuration not stated) | -5

# input Name the recorded cytotoxicity at 10 µM of the compound listed here: `O=C(O)C1(Oc2ccc(Cl)cc2)CCN(C2CCOCC2)CC1`
# output 3.05

# input Name the recorded cytotoxicity at 10 µM of the compound listed here: `O=C(Nc1nc2c(s1)CNCC2)NC1CCCC1`
# output -2.37

# input Name the recorded cytotoxicity at 10 µM of the compound listed here: O=C(C1CCCCN1Cc1nccn1CC(F)(F)F)N1CCCC1 (configuration not stated)
# output 14.2

# input Name the recorded cytotoxicity at 10 µM of the compound listed here: O=C1CC(c2ccc(O)cc2)c2sc(C(=O)O)c(-c3ccccc3)c2N1 (configuration not stated)
# output -0.472

# input Name the recorded cytotoxicity at 10 µM of the compound listed here: `O=C(Nc1ccc(CC(=O)N2CCCC2)cc1)NC1CC1`
# output -2.16

# input Name the recorded cytotoxicity at 10 µM of the compound listed here: `N#CC1(c2ccccc2)CCN(C(=O)CN2C(=O)CCNC2=O)CC1`
# output 0.172

# input Name the recorded cytotoxicity at 10 µM of the compound listed here: `COc1ccccc1CCNC(=O)CC1(Cn2cnnn2)CCCCC1`
# output 11.3

# input Name the recorded cytotoxicity at 10 µM of the compound listed here: `CN(C)c1ncccc1CNS(=O)(=O)c1ccc(F)c(F)c1`
# output -7.18

# input Name the recorded cytotoxicity at 10 µM of the compound listed here: CCCS(=O)(=O)NC(C)C(=O)NCc1ccc(N2CCCC2)nc1 (configuration not stated)
# output -11.8

# input Name the recorded cytotoxicity at 10 µM of the compound listed here: CC1CN(CCOc2cccc(C#N)c2)CCN1Cc1nccn1C (configuration not stated)
# output -2.81
